Tested on: Fibroblast
Experiment: Multiplex assay against human fibroblast
Type: toxicity, cell-based
Conditions: 24 h, 1 µM, compound concentration 1 uM, replicate 1
Assay Readout: Population Normal (%)
Entry rule: numbers only, all in %.

Previously resolved entries follow.
>>> result("Cc1c[nH]c2nccc(Oc3c(F)cc(Nc4cc(Cl)nc(N)n4)cc3F)c12")
89
>>> result("O=c1cc(N2CCOCC2)oc2c(-c3cccc4c3sc3ccccc34)cccc12")
90

Field request: Population Normal (%) | item: CC(C)CC(=O)Nc1[nH]nc2c1CN(C(=O)C1CCN(C)CC1)C2(C)C
86

// next record CC(C)Oc1ccccc1C(=O)Nc1ccccc1C(=O)Nc1cccc(S(=O)(=O)C(F)(F)F)c1
88

// next record CNC(=O)Nc1ccc(-c2nc(N3CC4CCC(C3)O4)c3cnn(C4CCC5(CC4)OCCO5)c3n2)cc1
79

// next record COc1ccc(-c2ccc3ncc4c(c3c2)n(-c2ccc(N3CCNCC3)c(C(F)(F)F)c2)c(=O)n4C)cn1.O=C(O)/C=C\C(=O)O
81

// next record CCCSc1nc(N[C@@H]2C[C@H]2c2ccc(F)c(F)c2)c2nnn([C@@H]3C[C@H](OCCO)[C@@H](O)[C@H]3O)c2n1
90

// next record CC(C)NC(=O)N1CC[C@H](NC2=Nc3cc(F)ccc3N(CC(F)F)c3ccc(Cl)cc32)C1
90

// next record CN1CCN(Cc2ccc(Nc3ncc(Cl)c(Nc4ccccc4S(=O)(=O)N(C)C)n3)cc2)CC1
88

// next record Cc1ccc(C)c(Oc2ccncc2C(=O)N2CCN(C3CC3)c3ccccc32)c1
80

* * *

System: Fibroblast
Experiment: Incucyte cell viability with human fibroblast; further: filed as whole numbers so only -1 and 0 and 1 occur
Assay type: toxicity, cell-based
Details: 0 h, 10 µM, compound concentration 10 uM, replicate number 2, timepoint 0 hours
Assay Readout: Growth Rate
A bare number is all that is needed in reply.

Field request: Growth Rate | item: CC(C)(C)NC[C@H](O)COc1nsnc1N1CCOCC1
1

// next record O=C(NCC(=O)N1CCCC1)Nc1ccc2cnccc2c1
0

* * *

Below is a list of entries, each paired with its recorded Growth Rate value.
Test system: Fibroblast
Experiment: Incucyte cell viability with human fibroblast; further: filed as whole numbers so only -1 and 0 and 1 occur
Assay type: toxicity, cell-based
Conditions: 24 h, 10 µM, compound concentration 10 uM, replicate number 1, timepoint 24 hours

Previously resolved entries follow.
>>> result("C[C@]12CC[C@@H]3c4ccc(O)cc4CC[C@H]3[C@@H]1CC[C@@H]2O")
0
>>> result("O=C([O-])c1cc2ccccc2c(Cc2c(O)c(C(=O)[O-])cc3ccccc23)c1O.[Na+].[Na+]")
1
>>> result("COc1cc2ncn(-c3cc(OCc4ccccc4C(F)(F)F)c(C(N)=O)s3)c2cc1OC [GW843682X]")
0

Field request: Growth Rate | item: COC(=O)C(Cc1ccc(OCCn2c(=O)sc3cc(C(=O)c4ccccc4)ccc32)cc1)C(=O)OC
1

* * *

Below is a list of entries, each paired with its recorded Population Tubulin-Different-Phenotype (%) value.
Test system: HEK-293T
Test: Multiplex assay against HEK293T;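 further: share of the cells with healthy nuclei that show this phenotype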
Assay type: toxicity, cell-based
Conditions: human, 48 h, 10 µM, compound concentration 10 uM, replicate 2
Entry rule: numbers only, all in %.

Previously resolved entries follow.
>>> result("Cc1cccc(CN2CCN(C(c3ccccc3)c3ccc(Cl)cc3)CC2)c1.Cl.Cl (centres undefined)")
71
>>> result("CCCSc1nc(N[C@@H]2C[C@H]2c2ccc(F)c(F)c2)c2nnn([C@@H]3C[C@H](OCCO)[C@@H](O)[C@H]3O)c2n1")
86
>>> result("COc1ccc(-c2ccc3ncc4c(c3c2)n(-c2ccc(N3CCNCC3)c(C(F)(F)F)c2)c(=O)n4C)cn1.O=C(O)/C=C\\C(=O)O")
75

With those in mind, consider the next molecule.
# get_value(readout= Population Tubulin-Different-Phenotype (%), system= HEK-293T) for C[C@]12CC[C@@H]3c4ccc(O)cc4CC[C@H]3[C@@H]1CC[C@@H]2O
10
